Measured values drawn from patent US20220009894A1 for this set.

target of assay: RORγt (Homo sapiens, UniProt P51449)
Construct: The plasmid of pFN26A-RORγt-LBD and pG14.35 (Promega, Cat. No. E1370) were co-transfected into HEK 293 cells; expressed in transfected cells; host or cells: HEK 293 cells (Cat. No. GNHu18)
measurement notes: RORγt cellular reporter gene detection assay;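 note: Ursolic Acid added as 5 µL of 20 µM medium per well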
Type: cell-based
condition details: upper activation limit; HEK 293 cells, in presence of antagonist Ursolic acid, 24 hrs
Please respond with reported Cellular Reporter Assay Amax for every item in the list.
// keep it numeric: no unit symbol after the value

Ask | Give the reported Cellular Reporter Assay Amax for this compound. `C/C(=C\c1ccc2c(c1)N(S(=O)(=O)c1cccc(C(F)(F)F)c1)C[C@@H]1CN(C(CO)CO)CCN21)c1c(F)cccc1Cl`
Reply | 5.8

Ask | Give the reported Cellular Reporter Assay Amax for this compound. `CCOC(=O)C(=O)N1CCN2c3ccc(/C=C/c4c(Cl)cccc4C(F)(F)F)cc3N(S(=O)(=O)c3cccc(C(F)(F)F)c3)C[C@@H]2C1`
Reply | 4.0

Ask | Give the reported Cellular Reporter Assay Amax for this compound. `N#Cc1cccc(-c2ccc3c(c2)N(S(=O)(=O)c2cccc(C(F)(F)F)c2)C[C@@H]2CN(CC(=O)O)CCN32)c1F`
Reply | 1.8

Ask | Give the reported Cellular Reporter Assay Amax for this compound. `C[C@]1(OCCC(=O)O)CCN2c3ccc(-c4cc(F)cc(OC(F)F)c4)cc3N(S(=O)(=O)c3cccc(C(F)(F)F)c3)C[C@@H]2C1`
Reply | 5.3

Ask | Give the reported Cellular Reporter Assay Amax for this compound. `O=C(O)CN1CCN2c3ccc(-c4cc(F)cc(OC(F)F)c4)cc3N(S(=O)(=O)c3cc(C(F)(F)F)cnc3OCCO)C[C@@H]2C1`
Reply | 4.1

Ask | Give the reported Cellular Reporter Assay Amax for this compound. `NC(=O)N1CCN2c3ccc(-c4cc(F)cc(OC(F)F)c4)cc3N(S(=O)(=O)c3cccc(C(F)(F)F)c3)C[C@@H]2C1`
Reply | 3.0

Ask | Give the reported Cellular Reporter Assay Amax for this compound. `CS(=O)(=O)N1CCN2c3ccc(-c4cc(F)cc(OC(F)F)c4)cc3N(S(=O)(=O)c3cccc(C(F)(F)F)c3)C[C@@H]2C1`
Reply | 5.5

---

Please respond with reported pEC50 for every item in the list.
target of assay: RORγt-LBD (Homo sapiens)
Sequence (P51449 269-508 limits assumed): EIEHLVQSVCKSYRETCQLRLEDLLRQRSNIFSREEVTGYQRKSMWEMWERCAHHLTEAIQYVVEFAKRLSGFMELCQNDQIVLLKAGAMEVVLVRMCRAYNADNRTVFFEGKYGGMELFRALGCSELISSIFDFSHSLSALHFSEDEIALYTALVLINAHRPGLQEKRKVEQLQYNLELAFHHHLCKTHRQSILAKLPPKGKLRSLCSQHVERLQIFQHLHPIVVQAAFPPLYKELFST
measurement notes: Time-resolved fluorescence resonance energy-transfer assay (TR-FRET), co-activator peptide recruitment
condition details: His-RORγt-LBD 30 nM, SRC peptide 500 nM; agonistic activity; averages of one or more measurements; read-out: TR-FRET Biochemical EC50/
Protocol: I. Time-Resolved Fluorescence Resonance Energy-Transfer Assay (TR-FRET) This experiment was a screening experiment for RORγt nuclear receptor agonists based on TR-FRET technology. […] Then the corresponding signal values were read with PerkinElmer EnVision at a wavelength of 665/615 […]. The agonistic activity of the corresponding compound was calculated with Graphpad Prism 7.0 software.
Quick note: pEC50 means taking -log10 of the concentration in moles per liter.

Ask | Give the reported pEC50 for this molecule. `C/C(=C\c1ccc2c(c1)N(S(=O)(=O)c1cccc(C(F)(F)F)c1)C[C@@H]1C[C@](C)(OCCC(=O)O)CCN21)c1c(F)cccc1Cl`
Reply | 7.92

Ask | Give the reported pEC50 for this molecule. `C[C@]1(OCCC(=O)O)CCN2c3ccc(-c4cc(F)cc(OC(F)F)c4)cc3N(S(=O)(=O)c3cccc(C(F)(F)F)c3)C[C@@H]2C1`
Reply | 6.95

Ask | Give the reported pEC50 for this molecule. `C/C(=C\c1ccc2c(c1)N(S(=O)(=O)c1cccc(C(F)(F)F)c1)C[C@@H]1CN(C3COC3)CCN21)c1c(F)cccc1Cl`
Reply | 7.34

---

target of assay: RORγt (Homo sapiens)
Construct: The plasmid of pFN26A-RORγt-LBD and pG14.35 (Promega, Cat. No. E1370) were co-transfected into HEK 293 cells; expressed in transfected cells; host or cells: HEK 293 cells (Cat. No. GNHu18)
measurement notes: RORγt cellular reporter gene detection assay;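 note: Ursolic Acid added as 5 µL of 20 µM medium per well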
Format: cell-based
condition details: upper activation limit; HEK 293 cells, in presence of antagonist Ursolic acid, 24 hrs
endpoint name: Cellular Reporter Assay Amax
// keep it numeric: no unit symbol after the value

Ask | Please indicate recorded Cellular Reporter Assay Amax of O=S(=O)(c1cccc(C(F)(F)F)c1)N1CC2C[S+]([O-])CCN2c2ccc(-c3cc(F)cc(OC(F)F)c3)cc21 (stereo not drawn) measured with RORγt (Homo sapiens).
Reply | 3.9

Ask | Please indicate recorded Cellular Reporter Assay Amax of O=C(O)COC1CCN2c3ccc(-c4cc(F)cc(OC(F)F)c4)cc3N(S(=O)(=O)c3cccc(C(F)(F)F)c3)C[C@@H]2C1 (stereo partly drawn) measured with RORγt (Homo sapiens).
Reply | 4.1

Ask | Please indicate recorded Cellular Reporter Assay Amax of `O=S(=O)(c1cccc(C(F)(F)F)c1)N1C[C@@H]2CN(C[C@H](O)CO)CCN2c2ccc(/C=C/c3c(Cl)cccc3C(F)(F)F)cc21` measured with RORγt (Homo sapiens).
Reply | 4.1
